biological target: Cav2.3 (Homo sapiens, UniProt Q15878); test: Human Cav2.3 channel calcium-influx assay; type: cell-based; details: HEK-293 T-Rex/Kir2.1/Cav2.3e-β4-α2δ1 cells, Fluo8 fluorescence, without pluronic acid; read-out: Cav2.3 (pIC50) (converted)
Sequence (Q15878 1-747 limits assumed): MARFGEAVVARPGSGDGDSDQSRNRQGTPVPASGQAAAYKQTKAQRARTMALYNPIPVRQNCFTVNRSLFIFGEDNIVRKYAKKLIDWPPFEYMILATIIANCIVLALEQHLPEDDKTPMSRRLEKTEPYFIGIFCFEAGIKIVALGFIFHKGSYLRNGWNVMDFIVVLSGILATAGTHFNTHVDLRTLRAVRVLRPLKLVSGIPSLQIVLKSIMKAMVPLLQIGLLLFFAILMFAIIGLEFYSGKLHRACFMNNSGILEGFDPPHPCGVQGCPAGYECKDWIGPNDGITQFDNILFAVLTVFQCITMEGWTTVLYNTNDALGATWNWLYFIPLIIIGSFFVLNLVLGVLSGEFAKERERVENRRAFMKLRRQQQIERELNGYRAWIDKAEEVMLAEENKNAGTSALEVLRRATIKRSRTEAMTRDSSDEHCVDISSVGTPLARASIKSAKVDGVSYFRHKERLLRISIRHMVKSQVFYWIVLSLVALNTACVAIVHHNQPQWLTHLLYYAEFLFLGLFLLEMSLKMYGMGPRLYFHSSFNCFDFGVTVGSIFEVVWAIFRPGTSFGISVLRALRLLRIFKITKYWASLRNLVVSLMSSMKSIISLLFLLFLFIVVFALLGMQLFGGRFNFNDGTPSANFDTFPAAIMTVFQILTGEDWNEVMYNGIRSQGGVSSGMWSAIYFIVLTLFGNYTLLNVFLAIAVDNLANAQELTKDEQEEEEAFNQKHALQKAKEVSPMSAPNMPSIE
Sequence (Q15878 1126-2313 limits assumed): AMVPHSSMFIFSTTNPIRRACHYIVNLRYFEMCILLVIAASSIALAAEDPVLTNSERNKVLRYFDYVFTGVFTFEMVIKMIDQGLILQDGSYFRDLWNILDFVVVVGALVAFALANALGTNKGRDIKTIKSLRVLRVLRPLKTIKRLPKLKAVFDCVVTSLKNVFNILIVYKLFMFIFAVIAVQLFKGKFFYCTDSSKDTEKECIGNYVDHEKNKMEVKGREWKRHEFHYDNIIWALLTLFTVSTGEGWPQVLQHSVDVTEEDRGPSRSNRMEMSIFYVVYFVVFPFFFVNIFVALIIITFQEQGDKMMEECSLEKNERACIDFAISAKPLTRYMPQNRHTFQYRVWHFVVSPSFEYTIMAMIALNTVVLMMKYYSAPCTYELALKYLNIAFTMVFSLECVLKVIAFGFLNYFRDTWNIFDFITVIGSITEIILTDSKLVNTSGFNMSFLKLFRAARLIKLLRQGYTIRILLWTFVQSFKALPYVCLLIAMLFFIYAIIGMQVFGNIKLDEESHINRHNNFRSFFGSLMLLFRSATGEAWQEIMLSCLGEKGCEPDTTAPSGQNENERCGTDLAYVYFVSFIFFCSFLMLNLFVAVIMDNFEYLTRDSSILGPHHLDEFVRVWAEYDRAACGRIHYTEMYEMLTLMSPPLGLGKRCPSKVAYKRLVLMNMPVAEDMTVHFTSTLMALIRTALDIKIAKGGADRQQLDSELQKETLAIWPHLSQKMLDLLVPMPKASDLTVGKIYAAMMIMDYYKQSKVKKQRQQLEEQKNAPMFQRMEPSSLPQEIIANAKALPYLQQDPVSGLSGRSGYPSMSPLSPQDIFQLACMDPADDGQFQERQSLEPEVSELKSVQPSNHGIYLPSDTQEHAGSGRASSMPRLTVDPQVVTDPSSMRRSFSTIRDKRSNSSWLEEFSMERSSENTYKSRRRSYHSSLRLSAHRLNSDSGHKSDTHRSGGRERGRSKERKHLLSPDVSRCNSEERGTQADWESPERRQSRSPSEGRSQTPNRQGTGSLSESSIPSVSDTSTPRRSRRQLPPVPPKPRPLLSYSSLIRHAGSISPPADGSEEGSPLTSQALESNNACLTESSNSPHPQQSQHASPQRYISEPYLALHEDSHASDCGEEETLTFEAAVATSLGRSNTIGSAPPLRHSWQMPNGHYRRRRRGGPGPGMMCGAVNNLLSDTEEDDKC
ASSAY METRIC: IC50 (µM)

{"columns": ["COMPOUND", "ASSAY METRIC", "READOUT VALUE"],
 "data": [
  ["CC1CC2(CCC2)CN1S(=O)(=O)c1ccc(C#N)s1 (stereo not drawn) [Example 8]", "IC50", 2.57]
]}

(I) CCc1ncsc1S(=O)(=O)N1CC2(CCC2)CC1C (stereo not drawn)
(II) CC1CC2(CCC2)CN1S(=O)(=O)c1ccc2ccoc2c1 (single isomer, unassigned) [Example 17]
(III) CC1CC2(CCC2)CN1S(=O)(=O)c1ccncc1 (single isomer, unassigned) [Example 12]
Ranking field: IC50; order: falling. Write the labels in rank order as requested. III, I, II

(a) CC1CC2(CCC2)CN1S(=O)(=O)c1ccc2c(c1)CN(c1ccccc1)CC2 (stereo not drawn)
(b) CCOC(=O)N1CCc2ccc(S(=O)(=O)N3CC4(CCC4)CC3C)cc2C1 (single isomer, unassigned) [Example 23]
(c) CCC1CC2(CCCC2)CN1S(=O)(=O)c1ccc2c(c1)CN(C(=O)C(F)(F)F)CC2 (stereo not drawn)
(d) CCC1CC2(CCC2)CN1S(=O)(=O)c1ccc2c(c1)OC(F)(F)O2 (stereo not drawn)
Sort the compounds on IC50; start with the lowest figure. // list labels; follow requested order b, c, a, d
(b: 0.501 µM, c: 2.45 µM, a: 4.79 µM, d: 9.33 µM)

----------
target: Cav2.3 (Homo sapiens, UniProt Q15878); assay: Human Cav2.3 channel calcium-influx assay; type: cell-based; conditions: HEK-293 T-Rex/Kir2.1/Cav2.3e-β4-α2δ1 cells, Fluo8 fluorescence, without pluronic acid; read-out: Cav2.3 (pIC50) (converted)
ASSAY METRIC: IC50 (nM)

{"columns": ["MOLECULE", "UNIT TEXT", "READOUT VALUE"],
 "data": [
  ["CC1(C)CC2(CCC2)CN1S(=O)(=O)c1ccsc1", "nM", 3890],
  ["CC1CC2(CCC2)CN1S(=O)(=O)c1ccc2c(c1)CN(C(=O)c1ccccc1)CC2 (single isomer, unassigned) [Example 28]", "nM", 1510],
  ["CCC1CC2(CCC2)CN1S(=O)(=O)c1ccc2c(c1)S(=O)(=O)CC2 (single isomer, unassigned) [Example 63]", "nM", 5620],
  ["Cc1nc(C)c(S(=O)(=O)N2CC3(CCC3)CC2C)s1 (centres unmarked) [Example 105]", "nM", 4570]
]}

(a) COc1cc(S(=O)(=O)N2CC3(CCC3)CC2C)ccn1 (centres unmarked)
(b) CC1CC2(CCC2)CN1S(=O)(=O)c1ccc2c(c1)CN(C(=O)C(F)(F)F)CC2 (centres unmarked) [Example 18]
Would you let me know which has the greater IC50 value, a or b ? # respond with the chosen item's label b

(A) CC1CC2(CCC2)CN1S(=O)(=O)c1ccc2c(c1)OCCO2 (centres unmarked) [Example 5]
(B) CCOC(=O)N1CCc2ccc(S(=O)(=O)N3CC4(CCC4)CC3C)cc2C1 (single isomer, unassigned) [Example 24]
(C) CC1CC2(CCN1S(=O)(=O)c1cccs1)CC2 (centres unmarked)
Which order do these items take when sorted by rising IC50? List them. Please list the labels in the order you were asked to rank them. B, A, C

(A) CCOc1cc(S(=O)(=O)N2CC3(CCC3)CC2C)ccn1 (centres unmarked)
(B) CC1CC2(CCC2)CN1S(=O)(=O)c1cc2oc(=O)[nH]c2cc1Cl (single isomer, unassigned) [Example 58]
Kindly identify the item with the lower IC50 figure among these two: A and B Answer with the label corresponding to your selection. A
(A: 2510 nM, B: 11500 nM)

----------
target: Cav2.3 (Homo sapiens, UniProt Q15878); assay: Human Cav2.3 channel calcium-influx assay; type: cell-based; conditions: HEK-293 T-Rex/Kir2.1/Cav2.3e-β4-α2δ1 cells, Fluo8 fluorescence, without pluronic acid; read-out: Cav2.3 (pIC50) (converted)
ASSAY METRIC: IC50 (µM)

Consider the following illustrative entries.
{"columns": ["COMPOUND", "IC50, µM"],
 "data": [
  ["CC1CC2(CCC2)CN1S(=O)(=O)c1ccc2c(c1)CN(C(=O)C(F)(F)F)CC2 (single isomer, unassigned) [Example 20]", 4.27],
  ["Cc1cnc(S(=O)(=O)N2CC3(CCC3)CC2C)s1 (centres unmarked) [Example 95]", 7.76],
  ["CC1CC2(CCC2)CN1S(=O)(=O)c1ccccc1 (single isomer, unassigned) [Example 46]", 7.76]
]}

(A) CC1CC2(CCC2)CN1S(=O)(=O)c1ccc2c(c1)OCCCO2 (centres unmarked) [Example 4]
(B) O=S(=O)(c1cccs1)N1CC2(CCCC2)CC1C1CCCCC1 (centres unmarked) [Example 75]
(C) CC1CC2(CCC2)CN1S(=O)(=O)c1nc2ccccc2s1 (centres unmarked) [Example 67]
Ordering: ascending IC50. To answer, arrange all of the labels according to the requested order. A, C, B
(A: 4.17 µM, C: 9.77 µM, B: 37.2 µM)

(P) CC1CC2(CCC2)CN1S(=O)(=O)c1ccco1 (single isomer, unassigned) [Example 38]
(Q) CC1CC2(CCC2)CN1S(=O)(=O)c1ccc2c(c1)CN(C(=O)Cc1ccccc1)CC2 (centres unmarked) [Example 21]
// returns P or Q , whichever has the lower IC50 Response format: the label of the selected entry. Q

----------
target: Cav2.3 (Homo sapiens, UniProt Q15878); test: Human Cav2.3 channel calcium-influx assay; format: cell-based; conditions: HEK-293 T-Rex/Kir2.1/Cav2.3e-β4-α2δ1 cells, Fluo8 fluorescence, without pluronic acid; read-out: Cav2.3 (pIC50) (converted)
ASSAY METRIC: IC50 (µM)

{"columns": ["COMPOUND", "EXPERIMENTAL SYSTEM", "IC50 [µM]"],
 "data": [
  ["CC1CC2(CCC2)CN1S(=O)(=O)c1cccc2c1OC(F)(F)O2 (stereo not drawn)", "Cav2.3 (Homo sapiens, UniProt Q15878)", 8.32],
  ["CC1CC2(CCC2)CN1S(=O)(=O)c1ccc2ccoc2c1 (stereo not drawn) [Example 15]", "Cav2.3 (Homo sapiens, UniProt Q15878)", 1.86],
  ["CC1CC2(CCC2)CN1S(=O)(=O)c1ccc2c(c1)COC2 (stereo not drawn)", "Cav2.3 (Homo sapiens, UniProt Q15878)", 3.98],
  ["CC1CC2(CCC2)CN1S(=O)(=O)c1cc2ccccc2o1 (stereo not drawn)", "Cav2.3 (Homo sapiens, UniProt Q15878)", 9.12],
  ["CC(C)C(=O)N1Cc2ccc(S(=O)(=O)N3CC4(CCC4)CC3C)cc2C1 (stereo not drawn)", "Cav2.3 (Homo sapiens, UniProt Q15878)", 2],
  ["CCc1nc2cc(S(=O)(=O)N3CC4(CCC4)CC3CC)ccc2o1 (stereo not drawn)", "Cav2.3 (Homo sapiens, UniProt Q15878)", 2.75]
]}

(I) Cc1noc(C)c1C(=O)N1CCc2ccc(S(=O)(=O)N3CC4(CCC4)CC3C)cc2C1 (stereo not drawn)
(II) CC1CC2(CCC2)CN1S(=O)(=O)c1cc2oc(=O)[nH]c2cc1Cl (stereo not drawn) [Example 56]
(III) Cc1ccc(S(=O)(=O)N2CC3(CCC3)CC2C)o1 (single isomer, unassigned) [Example 55]
// ranking: key=IC50, reverse=True List the labels, following the order given in the request. II, III, I

----------
molecular target: Cav2.3 (Homo sapiens, UniProt Q15878); test: Human Cav2.3 channel calcium-influx assay; assay type: cell-based; settings: HEK-293 T-Rex/Kir2.1/Cav2.3e-β4-α2δ1 cells, Fluo8 fluorescence, without pluronic acid; read-out: Cav2.3 (pIC50) (converted)
ASSAY METRIC: IC50 (nM)

{"columns": ["COMPOUND", "UNIT TEXT", "IC50"],
 "data": [
  ["Cc1nc(C)c(S(=O)(=O)N2CC3(CCC3)CC2C)s1 (single isomer, unassigned) [Example 107]", "nM", 6760],
  ["CCC1CC2(CCC2)CN1S(=O)(=O)c1ccc2nc(C)sc2c1 (stereo not drawn)", "nM", 1410],
  ["CCC1CC2(CCCC2)CN1S(=O)(=O)c1cccs1 (single isomer, unassigned) [Example 99]", "nM", 1910],
  ["Cc1nc(C)c(S(=O)(=O)N2CC3(CCC3)CC2C)s1 (single isomer, unassigned) [Example 106]", "nM", 2190],
  ["CCC1CC2(CCC2)CN1S(=O)(=O)c1ccco1 (stereo not drawn)", "nM", 4370]
]}

(1) CC1CC2(CCC2)CN1S(=O)(=O)c1cc(-c2ccccc2)cs1 (stereo not drawn)
(2) CCOC(=O)N1CCc2ccc(S(=O)(=O)N3CC4(CCC4)CC3C)cc2C1 (stereo not drawn) [Example 22]
Between 1 and 2 , which one shows the smaller IC50 number? Respond using the label that marks the chosen record. 2
